Quantity name: pKi
Scale: pKi equals -log10([C]), with [C] in mol/L.

*Q* Give pKi only, for CC(C)(C)c1ccc(C(=O)N[C@H]2CC[C@H](CCN3CCC(c4coc5ccccc45)CC3)CC2)cc1 , using human 5-HT2A receptor (Homo sapiens (Human)) data.
*A* 8.42

*Q* Give pKi only, for CS(=O)(=O)c1ccc(C(=O)N[C@H]2CC[C@H](CCN3CCC(c4coc5ccccc45)CC3)CC2)cc1 , using human 5-HT2A receptor (Homo sapiens (Human)) data.
*A* 8.24

*Q* Give pKi only, for CS(=O)(=O)N[C@H]1CC[C@H](CCN2CCC(c3coc4ccccc34)CC2)CC1 , using human 5-HT2A receptor (Homo sapiens (Human)) data.
*A* 8.27

*Q* Give pKi only, for O=C(CC1CC1)N[C@H]1CC[C@H](CCN2CCC(c3coc4ccccc34)CC2)CC1 , using human 5-HT2A receptor (Homo sapiens (Human)) data.
*A* 8.29

----------
Parameter 'readout' = pKi; parameter 'system' = human 5-HT2A receptor (Homo sapiens (Human), UniProt P28223).
Sequence (P28223 whole entry): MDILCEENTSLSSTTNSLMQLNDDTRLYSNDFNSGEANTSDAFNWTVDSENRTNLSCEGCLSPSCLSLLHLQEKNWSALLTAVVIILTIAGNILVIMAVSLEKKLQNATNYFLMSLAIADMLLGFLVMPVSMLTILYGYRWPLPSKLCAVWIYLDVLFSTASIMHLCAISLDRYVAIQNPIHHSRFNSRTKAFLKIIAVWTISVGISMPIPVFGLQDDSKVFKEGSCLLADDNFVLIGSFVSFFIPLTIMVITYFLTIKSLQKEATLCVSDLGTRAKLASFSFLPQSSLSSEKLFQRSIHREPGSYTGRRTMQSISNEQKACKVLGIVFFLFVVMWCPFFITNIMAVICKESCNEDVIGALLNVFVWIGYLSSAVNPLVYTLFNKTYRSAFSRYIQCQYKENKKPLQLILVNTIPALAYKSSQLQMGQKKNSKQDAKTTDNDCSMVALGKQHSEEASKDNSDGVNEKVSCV
Scale: pKi equals -log10([C]), with [C] in mol/L.

*Q* Retrieve pKi measured for O=C(N[C@H]1CC[C@H](CCN2CCC(c3coc4ccccc34)CC2)CC1)c1ccc(N2CCOCC2)nc1 [Example 65] and print it.
*A* 8.12

*Q* Retrieve pKi measured for O=C(CCO)N[C@H]1CC[C@H](CCN2CCC(c3coc4ccccc34)CC2)CC1 [Example 21] and print it.
*A* 8.08

*Q* Retrieve pKi measured for O=C(N[C@H]1CC[C@H](CCN2CCC(c3coc4ccccc34)CC2)CC1)C1CC1 [Example 27] and print it.
*A* 8.37

*Q* Retrieve pKi measured for CCCCC(=O)N[C@H]1CC[C@H](CCN2CCC(c3coc4ccccc34)CC2)CC1 [Example 57] and print it.
*A* 7.88

*Q* Retrieve pKi measured for O=C(N[C@H]1CC[C@H](CCN2CCC(c3coc4ccccc34)CC2)CC1)C1CCOCC1 [Example 3] and print it.
*A* 8.61

----------
biological target: human 5-HT2A receptor (Homo sapiens (Human))
The class of a record is decided solely by its measured Ki; consult bottom end = under 6 nM, midrange = from 6 nM up to 9 nM, top end = 9 nM and over

*Q* Quick check: band for Cc1cc(CC(=O)N[C@H]2CC[C@H](CCN3CCC(c4coc5ccccc45)CC3)CC2)on1
*A* midrange

*Q* Quick check: band for CC(C)C(=O)N[C@H]1CC[C@H](CCN2CCC(c3coc4ccccc34)CC2)CC1
*A* bottom end

*Q* Quick check: band for O=C(N[C@H]1CC[C@H](CCN2CCC(c3coc4ccccc34)CC2)CC1)c1ccc(C2CCCCC2)cc1
*A* bottom end

*Q* Quick check: band for CC(C)(C)c1ccc(S(=O)(=O)N[C@H]2CC[C@H](CCN3CCC(c4coc5ccccc45)CC3)CC2)cc1
*A* top end

*Q* Quick check: band for CC(C)(C)Oc1ccc(C(=O)N[C@H]2CC[C@H](CCN3CCC(c4coc5ccccc45)CC3)CC2)cc1
*A* bottom end

*Q* Quick check: band for CC(=O)N[C@H]1CC[C@H](CCN2CCC(c3coc4ccccc34)CC2)CC1
*A* bottom end

*Q* Quick check: band for O=C(CC1CCC1)N[C@H]1CC[C@H](CCN2CCC(c3coc4ccccc34)CC2)CC1
*A* bottom end

*Q* Quick check: band for O=C(N[C@H]1CC[C@H](CCN2CCC(c3coc4ccccc34)CC2)CC1)c1ccc(-n2cccc2)cc1
*A* top end

*Q* Quick check: band for O=C(Cc1noc2ccccc12)N[C@H]1CC[C@H](CCN2CCC(c3coc4ccccc34)CC2)CC1
*A* midrange

*Q* Quick check: band for CC(C)(C)CC(=O)N[C@H]1CC[C@H](CCN2CCC(c3coc4ccccc34)CC2)CC1
*A* top end

*Q* Quick check: band for CN(C)S(=O)(=O)N[C@H]1CC[C@H](CCN2CCC(c3coc4ccccc34)CC2)CC1
*A* bottom end

*Q* Quick check: band for O=C(N[C@H]1CC[C@H](CCN2CCC(c3coc4ccccc34)CC2)CC1)c1ccc(N2CCOCC2)cc1
*A* top end

*Q* Quick check: band for CC[C@@H](O)CC(=O)N[C@H]1CC[C@H](CCN2CCC(c3coc4ccccc34)CC2)CC1
*A* midrange

*Q* Quick check: band for CC(C)c1ccc(C(=O)N[C@H]2CC[C@H](CCN3CCC(c4coc5ccccc45)CC3)CC2)cc1
*A* bottom end

*Q* Quick check: band for O=C(Cc1ccc2c(c1)OCO2)N[C@H]1CC[C@H](CCN2CCC(c3coc4ccccc34)CC2)CC1
*A* top end

*Q* Quick check: band for O=C(N[C@H]1CC[C@H](CCN2CCC(c3coc4ccccc34)CC2)CC1)c1ccc(C2CC2)cc1
*A* bottom end

----------
target: human D2 receptor (Homo sapiens (Human)); test: Radioligand binding ([3H]-spiperone) to human D2 receptor, HEK293 EBNA membranes; details: HEK293 EBNA cells expressing human D2 receptor
Quantity name: Ki (µM)
Write the value in µM as a bare number.

*Q* Retrieve Ki measured for CC(=O)N[C@H]1CC[C@H](CCN2CCC(c3coc4ccccc34)CC2)CC1 and print it.
*A* 0.0504

*Q* Retrieve Ki measured for CC#CC(=O)N[C@H]1CC[C@H](CCN2CCC(c3coc4ccccc34)CC2)CC1 and print it.
*A* 0.0256

*Q* Retrieve Ki measured for O=C(N[C@H]1CC[C@H](CCN2CCC(c3coc4ccccc34)CC2)CC1)C1CCOC1 (mixture of isomers) and print it.
*A* 0.053

*Q* Retrieve Ki measured for O=C(N[C@H]1CC[C@H](CCN2CCC(c3coc4ccccc34)CC2)CC1)c1ccc2ncccc2c1 and print it.
*A* 0.103

----------
Quantity name: melting point (°C)
Write the value in °C as a bare number.

*Q* Retrieve melting point measured for O=C(N[C@H]1CC[C@H](CCN2CCC(c3coc4ccccc34)CC2)CC1)c1ccc(N2CCOCC2)cc1 and print it.
*A* 249

*Q* Retrieve melting point measured for O=C(N[C@H]1CC[C@H](CCN2CCC(c3coc4ccccc34)CC2)CC1)C1CCOC1 (mixture of isomers) and print it.
*A* 183

*Q* Retrieve melting point measured for O=C(CC1CCC1)N[C@H]1CC[C@H](CCN2CCC(c3coc4ccccc34)CC2)CC1 and print it.
*A* 173

*Q* Retrieve melting point measured for CC(C)c1ccc(C(=O)N[C@H]2CC[C@H](CCN3CCC(c4coc5ccccc45)CC3)CC2)cc1 and print it.
*A* 188

*Q* Retrieve melting point measured for Cc1cc(C(=O)N[C@H]2CC[C@H](CCN3CCC(c4coc5ccccc45)CC3)CC2)on1 and print it.
*A* 178

*Q* Retrieve melting point measured for O=C(N[C@H]1CC[C@H](CCN2CCC(c3coc4ccccc34)CC2)CC1)C(O)C(F)(F)F (mixture of isomers) and print it.
*A* 206

*Q* Retrieve melting point measured for O=C(N[C@H]1CC[C@H](CCN2CCC(c3coc4ccccc34)CC2)CC1)C1CCC1 and print it.
*A* 180

*Q* Retrieve melting point measured for O=C(CO)N[C@H]1CC[C@H](CCN2CCC(c3coc4ccccc34)CC2)CC1 and print it.
*A* 161

----------
target: human D2 receptor (Homo sapiens (Human), UniProt P14416); test: Radioligand binding ([3H]-spiperone) to human D2 receptor, HEK293 EBNA membranes; conditions: HEK293 EBNA cells expressing human D2 receptor
Sequence (P14416 whole entry): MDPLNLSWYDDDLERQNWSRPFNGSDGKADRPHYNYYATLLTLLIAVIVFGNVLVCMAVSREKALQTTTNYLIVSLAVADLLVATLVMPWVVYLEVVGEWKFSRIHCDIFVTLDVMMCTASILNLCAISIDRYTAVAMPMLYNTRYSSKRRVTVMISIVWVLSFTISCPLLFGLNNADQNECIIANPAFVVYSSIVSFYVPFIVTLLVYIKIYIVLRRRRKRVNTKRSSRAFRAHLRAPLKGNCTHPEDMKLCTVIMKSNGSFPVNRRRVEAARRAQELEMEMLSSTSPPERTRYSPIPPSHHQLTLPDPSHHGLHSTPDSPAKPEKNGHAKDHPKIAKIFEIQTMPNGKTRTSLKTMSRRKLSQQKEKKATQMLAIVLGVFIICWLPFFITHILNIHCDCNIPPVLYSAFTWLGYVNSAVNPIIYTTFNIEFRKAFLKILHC
Please respond with reported Ki for every item in the list.
Write the value in nM as a bare number.

*Q* Retrieve Ki measured for O=C(CC1CCCO1)N[C@H]1CC[C@H](CCN2CCC(c3coc4ccccc34)CC2)CC1 (stereo partly shown) and print it.
*A* 52.9

*Q* Retrieve Ki measured for COCCC(=O)N[C@H]1CC[C@H](CCN2CCC(c3coc4ccccc34)CC2)CC1 and print it.
*A* 71.2

*Q* Retrieve Ki measured for O=C(C[C@@H](O)C(F)(F)F)N[C@H]1CC[C@H](CCN2CCC(c3coc4ccccc34)CC2)CC1 and print it.
*A* 50.4

*Q* Retrieve Ki measured for O=C(N[C@H]1CC[C@H](CCN2CCC(c3coc4ccccc34)CC2)CC1)C1CC1(F)F (stereo partly shown) and print it.
*A* 28.1

*Q* Retrieve Ki measured for O=C(N[C@H]1CC[C@H](CCN2CCC(c3coc4ccccc34)CC2)CC1)c1ccnc2ccccc12 and print it.
*A* 96.7

*Q* Retrieve Ki measured for O=C(N[C@H]1CC[C@H](CCN2CCC(c3coc4ccccc34)CC2)CC1)c1ccc(-n2cccn2)cc1 and print it.
*A* 46.9

*Q* Retrieve Ki measured for O=C(N[C@H]1CC[C@H](CCN2CCC(c3coc4ccccc34)CC2)CC1)C1CCC1 and print it.
*A* 38

*Q* Retrieve Ki measured for CCc1ccc(C(=O)N[C@H]2CC[C@H](CCN3CCC(c4coc5ccccc45)CC3)CC2)cc1 and print it.
*A* 204

*Q* Retrieve Ki measured for O=C(N[C@H]1CC[C@H](CCN2CCC(c3coc4ccccc34)CC2)CC1)c1ccc(F)cc1 and print it.
*A* 68.9

*Q* Retrieve Ki measured for CN(C)S(=O)(=O)N[C@H]1CC[C@H](CCN2CCC(c3coc4ccccc34)CC2)CC1 and print it.
*A* 47

*Q* Retrieve Ki measured for CO[C@H]1CC[C@H](CC(=O)N[C@H]2CC[C@H](CCN3CCC(c4coc5ccccc45)CC3)CC2)CC1 and print it.
*A* 67.4

*Q* Retrieve Ki measured for O=C(CCO)N[C@H]1CC[C@H](CCN2CCC(c3coc4ccccc34)CC2)CC1 and print it.
*A* 62.9

*Q* Retrieve Ki measured for O=C(N[C@H]1CC[C@H](CCN2CCC(c3coc4ccccc34)CC2)CC1)c1ccc(Cl)cc1 and print it.
*A* 25.8

*Q* Retrieve Ki measured for CS(=O)(=O)CC(=O)N[C@H]1CC[C@H](CCN2CCC(c3coc4ccccc34)CC2)CC1 and print it.
*A* 50.8

*Q* Retrieve Ki measured for CC(C)(C)C(=O)N[C@H]1CC[C@H](CCN2CCC(c3coc4ccccc34)CC2)CC1 and print it.
*A* 38

*Q* Retrieve Ki measured for O=C(Cc1ccc2c(c1)OCO2)N[C@H]1CC[C@H](CCN2CCC(c3coc4ccccc34)CC2)CC1 and print it.
*A* 92.5

*Q* Retrieve Ki measured for O=C(N[C@H]1CC[C@H](CCN2CCC(c3coc4ccccc34)CC2)CC1)C12CC3CC(CC(C3)C1)C2 and print it.
*A* 129

*Q* Retrieve Ki measured for N#CCC(=O)N[C@H]1CC[C@H](CCN2CCC(c3coc4ccccc34)CC2)CC1 and print it.
*A* 41.5

*Q* Retrieve Ki measured for CC(C)CC(=O)N[C@H]1CC[C@H](CCN2CCC(c3coc4ccccc34)CC2)CC1 and print it.
*A* 43.5

*Q* Retrieve Ki measured for CC[C@H](O)CC(=O)N[C@H]1CC[C@H](CCN2CCC(c3coc4ccccc34)CC2)CC1 and print it.
*A* 33.8

*Q* Retrieve Ki measured for O=C(N[C@H]1CC[C@H](CCN2CCC(c3coc4ccccc34)CC2)CC1)c1ccc2c(c1)OCO2 and print it.
*A* 28.6

*Q* Retrieve Ki measured for Cc1cc(CC(=O)N[C@H]2CC[C@H](CCN3CCC(c4coc5ccccc45)CC3)CC2)on1 and print it.
*A* 83.6

*Q* Retrieve Ki measured for O=C(CC1COC1)N[C@H]1CC[C@H](CCN2CCC(c3coc4ccccc34)CC2)CC1 and print it.
*A* 34.2

*Q* Retrieve Ki measured for CC(C)CCC(=O)N[C@H]1CC[C@H](CCN2CCC(c3coc4ccccc34)CC2)CC1 and print it.
*A* 66

*Q* Retrieve Ki measured for CS(=O)(=O)c1ccc(C(=O)N[C@H]2CC[C@H](CCN3CCC(c4coc5ccccc45)CC3)CC2)cc1 and print it.
*A* 79.5

*Q* Retrieve Ki measured for CC[C@@H](O)CC(=O)N[C@H]1CC[C@H](CCN2CCC(c3coc4ccccc34)CC2)CC1 and print it.
*A* 55.4

*Q* Retrieve Ki measured for O=C(N[C@H]1CC[C@H](CCN2CCC(c3coc4ccccc34)CC2)CC1)C1CCCO1 (mixture of isomers) and print it.
*A* 81.5

*Q* Retrieve Ki measured for O=C(N[C@H]1CC[C@H](CCN2CCC(c3coc4ccccc34)CC2)CC1)C(O)C(F)(F)F (mixture of isomers) and print it.
*A* 46.4

*Q* Retrieve Ki measured for CC(C)(O)C(=O)N[C@H]1CC[C@H](CCN2CCC(c3coc4ccccc34)CC2)CC1 and print it.
*A* 53.7

*Q* Retrieve Ki measured for O=C(CC1CCOCC1)N[C@H]1CC[C@H](CCN2CCC(c3coc4ccccc34)CC2)CC1 and print it.
*A* 77.6

*Q* Retrieve Ki measured for O=C(N[C@H]1CC[C@H](CCN2CCC(c3coc4ccccc34)CC2)CC1)c1ccccc1 and print it.
*A* 32.3
